# ASSAY TARGET: rhIDO (recombinant human IDO) (Homo sapiens)
# Sequence (P14902 whole entry): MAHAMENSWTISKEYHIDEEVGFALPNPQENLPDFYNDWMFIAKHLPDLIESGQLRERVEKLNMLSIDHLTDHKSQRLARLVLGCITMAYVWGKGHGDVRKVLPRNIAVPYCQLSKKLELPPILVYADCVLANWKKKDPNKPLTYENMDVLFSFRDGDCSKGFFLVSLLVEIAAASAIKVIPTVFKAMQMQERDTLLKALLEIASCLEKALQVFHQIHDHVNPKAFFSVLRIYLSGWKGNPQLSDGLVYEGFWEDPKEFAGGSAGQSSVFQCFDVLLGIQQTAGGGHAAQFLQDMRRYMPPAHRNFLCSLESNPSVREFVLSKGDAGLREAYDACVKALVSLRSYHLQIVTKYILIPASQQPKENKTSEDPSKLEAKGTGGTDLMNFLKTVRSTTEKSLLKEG
# ASSAY INFO: Enzyme assay using rhIDO (rate of kynurenine production)
# Assay type: biochemical
# CONDITION SUMMARY: 2 h; final concentration of the compound 10 μM; rate relative to reaction without compound; read-out: rhIDO-mediated kynurenine production
Counter-ions that a name gives are not always drawn.
ATTRIBUTE MEASURED: remaining activity at 10 µM (%)

1. N#Cc1ccc(CNC(=O)c2ccccc2CSC(=N)N)cc1 [Compound 96, hydrobromide] | 71
2. N/C(=N\c1ccc(Br)cc1)SCc1cc(Br)ccc1C(=O)NCc1ccc(Cl)cc1 [Compound 84, hydrobromide] | 84
3. N#Cc1ccc(CNC(=O)c2cc(Br)ccc2C[Se]C(=N)N)cc1 [Compound 110, hydrobromide] | 61
4. N/C(=N\c1ccc(F)c(Cl)c1)SCc1cc(Br)ccc1C(=O)NCc1ccc(F)cc1 [Compound 88, hydrobromide] | 82
5. N#Cc1ccc(CNC(=O)c2ccc(Br)cc2CS/C(N)=N/c2ccc(F)c(Cl)c2)cc1 [Compound 85, hydrobromide] | 71
6. CC(C)(C)c1ccc(CSC(=N)N)c(CSC(=N)N)c1 [Compound 4, dihydrobromide] | 64
7. Fc1ccc(CSC2=NCN(CC3CCCCC3)CN2)c(CSC2=NCN(CC3CCCCC3)CN2)c1 | 29
8. COC(=O)c1c(CSC(=N)N)[nH]c2ccccc12 [Compound 32, hydrobromide] | 59

====

# ASSAY TARGET: IDO in A431 cells (Homo sapiens)
# Construct: endogenous in cells; host or cells: A431 cells, IFN-γ stimulated
# ASSAY INFO: IDO cell-based assay, kynurenine production in IFN-γ stimulated A431 cells
# CONDITION SUMMARY: A-431, 24 h; final concentration of the compound 10 μM; rate relative to culture without compound
Structures can show the parent of a compound that is named as a salt.
ATTRIBUTE MEASURED: remaining activity at 10 µM

1) Fc1ccc(CN2CN=C(SCc3ccccc3CSC3=NCN(Cc4ccc(F)c(F)c4)CN3)NC2)cc1F [Compound 43] | 11%
2) Clc1ccccc1CCN1CN=C(SCc2ccc(Br)cc2CSC2=NCN(CCc3ccccc3Cl)CN2)NC1 [Compound 53] | 5%
3) N=C(N)SCc1cc(Br)ccc1C(=O)NCCc1ccc(Cl)cc1 [Compound 78, hydrobromide] | 112%
4) N#Cc1ccc(CNC(=O)c2cccc(Br)c2CSC(=N)N)cc1 [Compound 111, hydrobromide] | 53%
5) Clc1ccc(CN2CN=C(SCc3cc(Cl)c(Cl)cc3CSC3=NCN(Cc4ccc(Cl)c(Cl)c4)CN3)NC2)cc1Cl [Compound 56] | 4%
6) NC(=O)SCc1ccccc1CS/C(N)=N/c1ccc(F)c(Cl)c1 [Compound 59, hydrobromide] | 1%
7) N#Cc1ccc(CNC(=O)c2cc(Br)ccc2CS/C(N)=N/c2ccc(Br)cc2)cc1 [Compound 119, hydrobromide] | 4%

====

# ASSAY TARGET: rhTDO (recombinant human TDO) (Homo sapiens)
# ASSAY INFO: Enzyme assay using rhTDO (rate of kynurenine production)
# Assay type: biochemical
# CONDITION SUMMARY: 2 h; final concentration of the compound 10 μM; rate relative to reaction without compound; read-out: rhTDO-mediated kynurenine production
Counter-ions that a name gives are not always drawn.
Criterion: remaining activity at 10 µM strictly under 20%. Met: yes. Not met: no.

1) FC(F)(F)c1ccc(CSC2=NCN(CCc3ccc(Cl)c(Cl)c3)CN2)c(CSC2=NCN(CCc3ccc(Cl)c(Cl)c3)CN2)c1 [Compound 47] | no
2) Clc1ccccc1CCN1CN=C(SCc2ccc(Br)cc2CSC2=NCN(CCc3ccccc3Cl)CN2)NC1 [Compound 53] | yes
3) CNC(=O)Cc1ccccc1CS/C(N)=N/c1ccc(F)c(Cl)c1 [Compound 80, hydrobromide] | no
4) N=C(N)SCc1ccccc1CC(=O)NCCc1ccccc1 [Compound 64, hydrobromide] | no
5) COc1ccc(CSC(=N)N)c(CSC(=N)N)c1 [Compound 35, dihydrobromide] | yes
6) N/C(=N\c1ccc(Cl)cc1)SCc1cc(F)c(F)cc1CS/C(N)=N/c1ccc(Cl)cc1 [Compound 132, dihydrobromide] | yes
7) c1ccc(CSC2=NCN(CC3CCCCC3)CN2)c(CSC2=NCN(CC3CCCCC3)CN2)c1 [Compound 29] | yes
8) FC(F)(F)c1cccc(CCN2CN=C(SCc3ccc(Br)cc3CSC3=NCN(CCc4cccc(C(F)(F)F)c4)CN3)NC2)c1 [Compound 149] | yes
9) N=C(N)SCc1cc(Cl)c(Cl)cc1CSC(=N)N [Compound 36, dihydrobromide] | yes
10) N/C(=N\c1ccc(F)c(Cl)c1)SCc1ccccc1CS/C(N)=N/c1ccc(F)c(Cl)c1 [Compound 122, dihydrobromide] | yes
11) Cl.Cl.c1ccc(CCN2CN=C(SCc3cscc3CSC3=NCN(CCc4ccccc4)CN3)NC2)cc1 [Compound 33, dihydrochloride] | no
12) Fc1ccc(CN2CN=C(SCc3ccc(Br)cc3CSC3=NCN(Cc4ccc(F)c(Cl)c4)CN3)NC2)cc1Cl [Compound 144] | yes
13) Fc1ccc(CSC2=NCN(CC3CCCCC3)CN2)c(CSC2=NCN(CC3CCCCC3)CN2)c1 [Compound 121] | yes
14) CNC(=O)c1ncccc1CSC(=N)N [Compound 98, hydrobromide] | no

====

# ASSAY TARGET: rhTDO (recombinant human TDO) (Homo sapiens, UniProt P48775)
# Sequence (P48775 whole entry): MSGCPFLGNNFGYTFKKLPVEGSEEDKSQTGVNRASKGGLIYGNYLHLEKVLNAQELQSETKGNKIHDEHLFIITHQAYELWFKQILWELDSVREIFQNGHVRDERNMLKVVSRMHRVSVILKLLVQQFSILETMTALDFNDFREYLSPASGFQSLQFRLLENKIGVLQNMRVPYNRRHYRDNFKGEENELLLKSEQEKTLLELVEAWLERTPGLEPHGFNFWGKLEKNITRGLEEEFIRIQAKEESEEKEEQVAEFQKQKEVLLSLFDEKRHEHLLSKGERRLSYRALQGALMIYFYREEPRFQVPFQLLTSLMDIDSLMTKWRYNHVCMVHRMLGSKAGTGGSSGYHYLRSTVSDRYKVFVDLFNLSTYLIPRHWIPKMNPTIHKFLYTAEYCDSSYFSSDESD
# ASSAY INFO: Enzyme assay using rhTDO (rate of kynurenine production)
# Type: biochemical
# CONDITION SUMMARY: 2 h; final concentration of the compound 10 μM; rate relative to reaction without compound; read-out: rhTDO-mediated kynurenine production
Structures can show the parent of a compound that is named as a salt.
ATTRIBUTE MEASURED: remaining activity at 10 µM

1) Fc1ccc(CN2CN=C(SCc3ccccc3CSC3=NCN(Cc4ccc(F)c(Cl)c4)CN3)NC2)cc1Cl [Compound 145] | 40%
2) N/C(=N\c1ccc(Br)cc1)SCc1cc(Cl)c(Cl)cc1CS/C(N)=N/c1ccc(Br)cc1 [Compound 135, dihydrobromide] | 8%
3) Br.Br.N=C(N)SCc1ccc(Cl)cc1CSC(=N)N [Compound 7, dihydrobromide] | 3%
4) COc1ccc(CCN2CN=C(SCc3ccc(Br)cc3CSC3=NCN(CCc4ccc(OC)cc4)CN3)NC2)cc1 [Compound 148] | 8%
5) N=C(N)SCc1cc(Br)ccc1C(=O)NCCc1ccc(Cl)cc1 [Compound 78, hydrobromide] | 25%
6) N=C(N)SCc1cc(Br)ccc1C(=O)NCc1ccc(F)cc1 [Compound 86, hydrobromide] | 46%

====

# ASSAY TARGET: IDO in A431 cells (Homo sapiens)
# Construct: endogenous in cells; host or cells: A431 cells, IFN-γ stimulated
# ASSAY INFO: IDO cell-based assay, kynurenine production in IFN-γ stimulated A431 cells
# CONDITION SUMMARY: A-431, 24 h; final concentration of the compound 10 μM; rate relative to culture without compound
Counter-ions that a name gives are not always drawn.
ATTRIBUTE MEASURED: remaining activity at 10 µM (%)

1) N=C(N)SCc1ccccc1CC(=O)NCCCCc1ccccc1 [Compound 72, hydrobromide] | 69
2) Br.Br.N=C(N)SCc1ccc(Br)cc1CSC(=N)N [Compound 10, dihydrobromide] | -1
3) Br.Br.N=C(N)SCc1cscc1CSC(=N)N [Compound 15, dihydrobromide] | 12
4) N/C(=N\c1cccc(Cl)c1)SCc1cc(Cl)c(Cl)cc1CS/C(N)=N/c1cccc(Cl)c1 [Compound 125, dihydrobromide] | 11
5) c1ccc(CN2CN=C(SCc3ccccc3CSC3=NCN(Cc4ccccc4)CN3)NC2)cc1 | 7
6) N#Cc1ccc(CNC(=O)c2ccccc2C[Se]C(=N)N)cc1 [Compound 104, hydrobromide] | -4
7) N=C(N)SCc1cc(Br)ccc1C(=O)NCc1ccc(Br)cc1 [Compound 97, hydrobromide] | 83
8) COc1ccc(CCN2CN=C(SCc3ccc(F)cc3CSC3=NCN(CCc4ccc(OC)cc4)CN3)NC2)cc1 | 16
9) FC(F)(F)c1ccc(CCN2CN=C(SCc3ccccc3CSC3=NCN(CCc4ccc(C(F)(F)F)cc4)CN3)NC2)cc1 | 16
10) COc1ccc(/N=C(\N)SCc2ccc(F)cc2CS/C(N)=N/c2ccc(OC)cc2)cc1 [Compound 128, dihydrobromide] | 11
11) Brc1ccc(CCN2CN=C(SCc3ccccc3CSC3=NCN(CCc4ccc(Br)cc4)CN3)NC2)cc1 | 6
12) N=C(N)SCc1sc2ccccc2c1CSC(=N)N [Compound 151, dihydrobromide] | 33
13) N=C(N)SCc1cc(Cl)c(Cl)cc1CSC(=N)N [Compound 36, dihydrobromide] | 1
14) N/C(=N\c1ccc(Br)cc1)SCc1ccc(F)cc1CS/C(N)=N/c1ccc(Br)cc1 [Compound 126, dihydrobromide] | 13
15) CNC(=O)Cc1ccccc1CS/C(N)=N/c1ccc(Br)cc1 [Compound 79, hydrobromide] | 60
16) N/C(=N\c1cccc(Br)c1)SCc1cc(Cl)c(Cl)cc1CS/C(N)=N/c1cccc(Br)c1 [Compound 136, dihydrobromide] | 13
17) Clc1ccccc1CCN1CN=C(SCc2ccccc2CSC2=NCN(CCc3ccccc3Cl)CN2)NC1 | 7
18) CNC(=O)c1ccc(C#N)cc1CSC(=N)N [Compound 77, hydrobromide] | 103
19) N#Cc1ccc(CNC(=O)c2ccc(Br)cc2CS/C(N)=N/c2ccc(Br)cc2)cc1 [Compound 87, hydrobromide] | 67
20) c1cnc(SCc2ccccc2CSc2ncccn2)nc1 | 76
21) Fc1ccc(CSC2=NCN(CC3CC3)CN2)c(CSC2=NCN(CC3CC3)CN2)c1 | 14
22) Cl.Cl.c1ccc(CCN2CN=C(SCc3cscc3CSC3=NCN(CCc4ccccc4)CN3)NC2)cc1 [Compound 33, dihydrochloride] | 3
23) Br.Br.N=C(N)SCc1ccc(Cl)cc1CSC(=N)N [Compound 7, dihydrobromide] | 0
24) N=C(N)SCc1ccc2ccccc2c1CSC(=N)N [Compound 3, dihydrobromide] | 7
25) Fc1ccc(CSC2=NCN(Cc3ccc(F)c(Cl)c3)CN2)c(CSC2=NCN(Cc3ccc(F)c(Cl)c3)CN2)c1 | 16
26) Brc1ccc(CSC2=NCN(CC3CC3)CN2)c(CSC2=NCN(CC3CC3)CN2)c1 | 9
27) N#Cc1ccc(CNC(=O)c2ccccc2CSC(=N)N)cc1 [Compound 96, hydrobromide] | 93
